target: T1, hPD-1-Fc (human, UniProt Q15116 25-167); experiment: blocking ELISA, hPD-1-Fc to hPD-L1-Fc
T1 construct: domain: IgV domain; also called human PD-1-Fc; not shown: human IgG1 Fc
T1 sequence (Q15116 25-167 limits assumed): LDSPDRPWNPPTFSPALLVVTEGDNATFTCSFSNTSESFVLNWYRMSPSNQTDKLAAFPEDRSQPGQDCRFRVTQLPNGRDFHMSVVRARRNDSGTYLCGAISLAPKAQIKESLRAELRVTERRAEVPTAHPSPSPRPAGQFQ
Observable: pIC50
Numbers only, as −log10 of the molar value.

pIC50 for 34C1 (antibody, V domains shown) VH: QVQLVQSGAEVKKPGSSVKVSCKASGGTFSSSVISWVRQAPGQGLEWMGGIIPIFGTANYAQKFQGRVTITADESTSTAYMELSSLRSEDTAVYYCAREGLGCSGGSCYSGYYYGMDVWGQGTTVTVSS VL: DIVMTQSPLSLPVTPGEPASISCRSSESLLYSNGNTYLDWYLQKPGQSPQLLIYEVSNRASGVPDRFSGSGSGTDFTLKISRVEAEDVGVYYCMQGTRWPYTFGQGTKVEIK is 8.70
